# PROCEDURE DETAILS: soluble fraction after stress (log2 fold change); higher = more stays soluble; pooled small domains, quantitative proteomics
# MEASUREMENT CONTEXT: stress: 50 degC
Entry flag: MET if soluble fraction (log2) reaches 0.3; NOT MET if it does not.

Please review the following examples before continuing.
>>> group("HMNRITEFVVPEGTKKIRADKLLAESFPDHSRSDFHRAFDASLVRLEGQPISKNRKISQGDVLVFEMPEI")
"NOT MET"
>>> group("HMTNYSFIVNENFNNKRIDQVVANHYPKISRTKVNKIIKNNLLKLNGSTFNDPSAKVKLGDQIEFENL")
"MET"
>>> group("HMAPRKNIRLLRAAQDKAAAEGDHETVDAIRGQIAALIETLPVQYREEYLLQEKGRENGLKLAIENAAK")
"MET"
>>> group("HMTPNRDDEHLQSLRDYYASNRRIPSLQRIAALLGFSSRSAAVKLMGRLADEGFVERTVDDDAWIPGSRFF")
"NOT MET"
>>> group("HMGLVQQSAQKSDDAAKLMAANNLNAAQSKYQLPDEAEKDFFTFAFERGYAVEDFVDAGLVDKIMADFSA")
"NOT MET"

Data request: Test whether the sequence HMENITTILRSIKNEIKKNSTFVGDDFVNQARSMNQGQIKEKSIYGHGTKKEIEELRDEGVDVLNIPWIT records soluble fraction (log2) of 0.3 or higher.
Data returned: NOT MET
